Tested on: LXRb homodimer (NR concentration 270 nM)
Experiment: PBM binding z-score (relative to random genomic background probes); higher = stronger binding; sequences stand for … in GC…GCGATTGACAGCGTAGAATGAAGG
Below, each entry is listed alongside its reported PBM binding z-score.
The answer should be written as a number, with no unit following it.

Some sequences with recorded PBM binding z-score:
INSERT INTO measurements (construct_sequence, observable, observed) VALUES
  ('ATCTCTAGGTAACAAATTCAGTGAAAGAGAGGAC', 'PBM binding z-score', 1.15),
  ('ACTAGCAGGCCAAGTTCGGGTCACTCAAACAAAG', 'PBM binding z-score', -0.339),
  ('ATCTCTAGGTAACCAAGTTCAGTGCATGCCGAAC', 'PBM binding z-score', 0.777),
  ('TCTAGTTGGTAACGGAGGTCACACACGACGGGTA', 'PBM binding z-score', 0.826),
  ('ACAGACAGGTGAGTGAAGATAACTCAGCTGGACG', 'PBM binding z-score', -0.749);

Which PBM binding z-score reading was recorded for the sequence ATCTCTAGGTAAGAGTCAGTTCAGTGAAGAACGC ?
0.685

Which PBM binding z-score reading was recorded for the sequence TCGAGTAGGTTACCAATGGGGCATTCAACTTTCT ?
0.172

Which PBM binding z-score reading was recorded for the sequence CCTAGTTGGTCTGGAGGTCACACACCGGATATGA ?
0.759

Attribution: the supplement of paper PMC6555819
